A collection of compounds and their measured melting point
property_measured: melting point

CC1(C)Cc2cccc(CCN3CCN(c4nsc5ccccc45)CC3)c2NC1=O; 95 °C
O=Cc1ccccc1Oc1ccc(C(F)(F)F)cc1[N+](=O)[O-]; 79 to 81 °C
CC(C)CCOc1cc(C(=O)O)cc([N+](=O)[O-])c1; 142 °C
CCOC1Nc2c(O)cccc2C(=O)N2CCCC12 (stereo not given); 153 to 155 °C
CC(CNc1ccc(C(=O)O)cc1)Oc1cccc2ccccc12 (stereo not given); 142 to 144 °C
O=C(Nc1ccncn1)c1ccccc1SSc1ccccc1C(=O)Nc1ccncn1; 234 to 235 °C
CCCS(=O)(=O)c1c(Cl)cnc(Cl)c1Cl; 73 to 78 °C
CC(=O)OC1CCCc2cnc3ccccc3c21 (stereo not given); 128 to 129 °C
O=Cc1cccc2cncn12; 138 to 140 °C
CN(C)Cc1cc(C(=O)c2sccc2Cl)cc(C(C)(C)C)c1O; 131 to 132 °C
COc1ccc(C(O)CNCCc2ccc(OC)c(OC)c2Cl)cc1 (stereo not given); 117 to 120 °C
Cc1c(Br)c2c(c3c1C(c1ccc(C(C)C)cc1)CO3)CCCC2 (stereo not given); 108 to 109 °C
Cc1cccc(N2CCN(CCCCc3ccc(C(=O)CCC(=O)O)cc3)CC2)c1; 199 to 201 °C
CC1(C)CC2(CC(c3ccc(F)cc3)=C1/C=C/[C@H]1C[C@H](O)CC(=O)O1)OCCO2 (relative stereo); 142 to 144 °C
CN1CC[C@@H](c2c(O)cc(O)c3c(=O)cc(-c4ccc(C#N)cc4Cl)oc23)[C@@H]1CO; 237 to 239 °C
